Assay: Quantitative High-Throughput drug screen in 47 multiple myeloma cell lines against the NCATS MIPE library collection: KMS28PE_JCRB cell viability assay (AID 1918983); note: nearly all actives have a fitted effect of over 35% in size
Details: KMS28PE multiple myeloma viability, CellTiter-Glo ATP, 48 h; series mostly up to 45.8 µM
Results filed as inconclusive are left out. The source made the active and inactive calls. Calls come from the whole dose curve; as a rule, active = well fitted cell-killing curve with a large enough effect; inconclusive = small, poorly fitted or top-dose-only effect, or effect the other way; inactive = no such curve, though single readings can be large or run the other way.
Please answer using one outcome listed in label 1 = active, label 0 = inactive

input: Hello, I am checking results. What call was entered for `COc1ccc2c3n(c(=NC(=O)c4cccnc4)nc2c1OC)CCN3` ?
output: label 1

input: Please indicate how the test categorized `O=c1ncn2nc(Sc3ccc(F)cc3F)ccc2c1-c1c(Cl)cccc1Cl` .
output: label 0

input: Call for entry `Cc1cccc(-c2nn(C(=S)Nc3ccccc3)cc2-c2ccnc3ccccc23)n1` :
output: label 1

input: Outcome logged for `COc1ccc(CCN2CCN(CCCc3ccccc3)CC2)cc1OC` in this assay:
output: label 0

input: Entry CCN(CC)CCCC(C)Nc1ccnc2cc(Cl)ccc12 (stereo not drawn) : call = ?
output: label 0

input: In this assay, the call recorded for `Cc1ccnc(NS(=O)(=O)c2ccc(NC(=O)Nc3ccc(S(=O)(=O)Nc4nccc(C)n4)cc3)cc2)n1` was what?
output: label 0

input: What call does the record list for `Nc1ccc(S(=O)(=O)Nc2ccnn2-c2ccccc2)cc1` ?
output: label 0

input: Write down the call the test reported for this compound. Item: `Cc1cn[nH]c1`
output: label 1

input: Returns: the outcome recorded for `O=C(C1CC1)N1CC[C@@H](Cn2c(-c3ccc(-c4ccc5occc5c4)cc3)nc3cnccc32)C1` in this assay.
output: label 0

input: Entry `c1ccc(-c2nn3c(c2-c2ccnc4cc(OCCN5CCOCC5)ccc24)CCC3)nc1` : call = ?
output: label 1

input: Field: outcome | Entry: `CC(C)(C)OC(=O)CN(Cc1ccc(Cl)cc1)Cc1ccc([N+](=O)[O-])s1`
output: label 1

input: Can you look up the reported call for `CCOc1cc(C(=O)Nc2ccc(Cl)c(-c3nc4ccccc4[nH]3)c2)cc(OCC)c1OCC` for me?
output: label 0

input: // return assay outcome for `CCCC(CCC)C(=O)O`
output: label 0

====

Could you please report measured parasite growth, % of DMSO control for the items listed next?
Experiment: qHTS profiling of the MIPE4 collection as inhibitors of Plasmodium falciparum (3D7) proliferation (AID 743344);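 note: scaled between DMSO vehicle wells and 0.29 µM artemisinin as full inhibition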
Conditions: P. falciparum 3D7 in erythrocytes, SYBR Green DNA fluorescence, 72 h; at 28.5 µM (top of the series) unless noted

input: Name the reported parasite growth, % of DMSO control value associated with the compound `Oc1cccc(-c2nc(N3CCOCC3)c3oc4ncccc4c3n2)c1`
output: 6.68% [at 57.5 µM]

input: May I ask what parasite growth, % of DMSO control has been recorded for `O=C(Nc1cccnc1)N1CCC(Cc2cccc(Oc3ccc(C(F)(F)F)cn3)c2)CC1` ?
output: 14.7%

input: Give its parasite growth, % of DMSO control value. Item: `S=C(NCc1ccc2c(c1)OCO2)N1CCN(c2ncnc3c2oc2ccccc23)CC1`
output: 20.8% [at 57.5 µM]

input: parasite growth, % of DMSO control lookup needed for `Cn1cnc2c(F)c(Nc3ccc(Br)cc3Cl)c(C(=O)NOCCO)cc21` , thanks.
output: 58.2%

input: What value of parasite growth, % of DMSO control has been reported for the following compound? `CC1(C)Cc2c(-c3ccccc3)c(-c3ccc(Cl)cc3)c(CC(=O)O)n2C1`
output: 61%

input: // returns reported parasite growth, % of DMSO control for input `CNC(=O)c1ccc(N2C(=S)N(c3ccc(C#N)c(C(F)(F)F)c3)C(=O)C2(C)C)cc1F`
output: 53.9%

input: Would you mind telling me what parasite growth, % of DMSO control value was observed for OC(CCN1CCCCC1)(c1ccccc1)C1CC2C=CC1C2 (centres undefined) ?
output: 38.1%

input: Using the record for Cc1c(C)c2c(c(C)c1O)CCC(C)(COc1ccc(CC3SC(=O)NC3=O)cc1)O2 (centres undefined) , report its parasite growth, % of DMSO control.
output: 35.4%

input: What value of parasite growth, % of DMSO control has been reported for the following compound? O=C(O)COCCN1CCN(C(c2ccccc2)c2ccc(Cl)cc2)CC1 (centres undefined)
output: 82.3%

input: What does the record list as parasite growth, % of DMSO control for `COc1cc2c(cc1OC)CN(CCc1ccc(NC(=O)c3cccc4c(=O)c5cccc(OC)c5[nH]c34)cc1)CC2` ?
output: 5.92%

input: Would you mind telling me what parasite growth, % of DMSO control value was observed for `CCCc1nn(C)c2c(=O)[nH]c(-c3cc(S(=O)(=O)N4CCN(C)CC4)ccc3OCC)nc12` ?
output: 21.3%

input: Entry `Cc1cc(C=c2sc3nc4ccccc4n3c2=O)c(C)n1-c1ccccc1` has what parasite growth, % of DMSO control?
output: 84.9%

input: Which parasite growth, % of DMSO control reading was recorded for the compound CC(C)NCC(O)COc1ccc(COCCOC(C)C)cc1 (centres undefined) ?
output: 78.7%

input: State the recorded parasite growth, % of DMSO control for this entry: `CCCCCCCc1ccc(CCc2cccc(O)c2C(=O)O)cc1`
output: 68.8%

input: Consider the compound shown here: `CS(=O)(=O)Oc1ccc2c(NC(N)=O)c(C(=O)c3ccc(Cl)cc3Cl)oc2c1` What is its recorded parasite growth, % of DMSO control?
output: 49.8%

input: Requested field: parasite growth, % of DMSO control. Item: `NC(=O)c1ccc(-c2nc(-c3ccc4c(c3)OCO4)c(-c3ccccn3)[nH]2)cc1`
output: 42.9%

input: For `CCOc1ccc(Cc2cc([C@@H]3O[C@H](CO)[C@@H](O)[C@H](O)[C@@H]3O)ccc2Cl)cc1` , what is its reported parasite growth, % of DMSO control?
output: 136%

input: What parasite growth, % of DMSO control value was documented for this compound, `COc1ccc(-c2ccc3c(N4CCOC[C@H]4C)nc(N4CCOC[C@H]4C)nc3n2)cc1CO` ?
output: 6.01%

input: Value lookup for parasite growth, % of DMSO control; key = CCN(CC)CCCC(C)Nc1ccnc2cc(Cl)ccc12 (centres undefined)
output: 19.3%

This collection of values is drawn from PubChem BioAssay (NCATS).
